B1: LINE1-full (parent)
chain: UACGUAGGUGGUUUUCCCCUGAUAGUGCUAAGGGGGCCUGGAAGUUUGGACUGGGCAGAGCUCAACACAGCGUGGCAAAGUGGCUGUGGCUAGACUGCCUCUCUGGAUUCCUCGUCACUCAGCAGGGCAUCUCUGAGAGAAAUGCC

# Variants of: B1
# ASSAY NAME: self-cleavage, relative activity (ratio to wild type); higher = more cleavage; in vitro, sequencing; the parent is a self-cleaving ribozyme
Decide using self-cleavage: a value greater than or equal to 1 is met, a smaller one is not met.

| SEQUENCE CODE | CLASS ASSIGNMENT |
| --- | --- |
| UACGUAGGUGGUUUUCCCCUGAUAGUGCUAAGGGGGCCUGGAAGUUUGGACUGGGCAGAGCCCAACACAGCGUGGUAAAGUGGCUGUGGCUAGACUGCCUCUCUGGAUUCCUCGUCACUCAGCAGGGCAUCUCUGAGAGAAAUGCC | not met |
| UACGUAGGUAGUUUUCCCCUGAUAGUGCUAAGGGGGCCUGGAAGUUUGGACUGGGCAGAGCUCAACACAGCGUGGCAAAGUGGCUGUGGCUAGACUGCCUCUCUGGAUUCCUCGUCACUCAGCAGGGCAUCUCUGAGAGAGAUGCC | not met |
| UACGUAGGUGGUUUUCCCCUGAUAGUGCUAAGGGGGCCUGGAAGUUUGGACGGGGCAGAGCUCAACACAGCGUGGCAAAGUGGCUGUGGCUAGACUGCCUCUCUGGAUUCCUCGUCACUCAGCAGGGCAUCCCUGAGAGAAAUGCC | met |
| UACGUAGGUGGUUUUCCCCUGAUAGUGCUAAGGGGGCCUGGAAGUUUGGACUGGGCAGAGCCCAACACAGCGUGGCAAAGUGGCUGCGGCUAGACUGCCUCUCUGGAUUCCUCGUCACUCAGCAGGGCAUCUCUGAGAGAAAUGCC | not met |
| UACGUAGGUGGUUUUCCCCUGAUAGUGCUAAGGGGGCCUGGAAGUUCGGACUGGGCAGAGCUCAACACAGCGUGGCAGAGUGGCUGUGGCUAGACUGCCUCUCUGGAUUCCUCGUCACUCAGCAGGGCAUCUCUGAGAGAAAUGCC | met |
| UACGUAGGUGGUUUUCCCCUGAUAGUGCUAAGGGGGCCUGGAAGUUUGGACUGGGCAGAGCUCAACACAGCGUGGCAAAGUGGCUGUGGCUAGACUGCCUCUCUGGAUUUCUCGUCACUCAGCAGGGCAUCUCUGAGAGAAGUGCC | met |
| UACGUAGGUGGUUUUCCCCUGAUAGUGCUAAGGGGGCCUGGAAGAUUGGACUGGGCAGAGCUCAACACAGCGUGGCAAAGUGGCUGUGGCUAGUCUGCCUCUCUGGAUUCCUCGUCACUCAGCAGGGCAUCUCUGAGAGAAAUGCC | not met |
| UACGUAGGUGGUUUUCCCCUGAUAGUGCUAAGGGGGCCUGGAAGUUUGGACUGGGCUGAGCUCAACACAGCGUGGCAAAGUGGCUGUGGCUAGACUGCCUCUCUGGAUUCCUCGUCACUCAGCAGGGCUUCUCUGAGAGAAAUGCC | not met |
| UACGUAGGUGGUUUUCCCCUGAUAGUGCUAAGGGGGCCUGGAAGUUUGGACUGGGCAGAGCUCAAAACAGCGUGGCAAAGUGGCUGUGGCUAGACUGCCUCUCUGGAUUCCUCGUCACUCAGCUGGGCAUCUCUGAGAGAAAUGCC | not met |
| UACGUAGGUGGUUUUCCCCCGAUAGUGCUAAGGGGGCCUGGAAGUUUGGACUGGGCAGAGCUCAACACAGCGUGGCAAAGUGGCUGUGGCUAGACUGCCUCUCUGGAUUCCUCGUCACUCAGCAGGGCGUCUCUGAGAGAAAUGCC | met |
| UACGUAGGUGGUUUUCCCCUGAUAGUGCUAAGGGGGCCUGGAAGUUUGGACUGGGCAGAGCCCAACACAGCGUGGCAAAGUGGCUGUGGCUAGACUCCCUCUCUGGAUUCCUCGUCACUCAGCAGGGCAUCUCUGAGAGAAAUGCC | not met |
| UACGUAGGUGGUUUUCCCCUGAUAGUGCUAAGGGGGCCUGGAAGGUUGGACUGGGCAGAGCUCAACACAGCGUGGCAGAGUGGCUGUGGCUAGACUGCCUCUCUGGAUUCCUCGUCACUCAGCAGGGCAUCUCUGAGAGAAAUGCC | met |
| UACGAAGGUGGUUUUCCCCUGAUAGUGCUAAGGGGGCCUGGAAGUUUGGACUGGGCAGAGCUCAACACAGCGUGGCAAAGUGGCUGUGGCUAGACUGCCUCUCUGGAUUCCUCGUCACCCAGCAGGGCAUCUCUGAGAGAAAUGCC | not met |
| UACGUAGGCGGUUUUCCCCUGAUAGUGCUAAGGGGGCCUGGAAGUUUGGACUGGGCAGAGCUCCACACAGCGUGGCAAAGUGGCUGUGGCUAGACUGCCUCUCUGGAUUCCUCGUCACUCAGCAGGGCAUCUCUGAGAGAAAUGCC | not met |
| UACGCAGGUGGUUUUCCCCUGAUAGUGCUAAGGGGGCCUGGAAGUUUGGACUGGGCAGAGCUCAACACAGCGUGGCUAAGUGGCUGUGGCUAGACUGCCUCUCUGGAUUCCUCGUCACUCAGCAGGGCAUCUCUGAGAGAAAUGCC | not met |
| UACGUAGGUGGUUUUCCCCUGAUAGUGCUAAGGGGGCCUGGAAGUUUGGACUGGGCAGAGCUCAACACAGCGUGGCAAAGUGGCUGUGGCUAGACUGCCUCUCUGGAUUCCUCGUCACUCGGCAGGGCAUCUCUGAGAGAUAUGCC | met |
| UACGUAGGUGGUUUUCCCCUGAUAGUGCUAAGGGGGCCUGGAAGAUUGGACUGGGCUGAGCUCAACACAGCGUGGCAAAGUGGCUGUGGCUAGACUGCCUCUCUGGAUUCCUCGUCACUCAGCAGGGCAUCUCUGAGAGAAAUGCC | not met |
| UACGUAGGCGGUUUUCCCCUGAUAGUGCUAAGGGGGCCUGGAAGUUUGGACUGGGCAGAGCUCAACACAGCGUGGCAAAGUGGCUGUGGCUAGACUGCCUCUCUGGAUUCCUCGUCACUCAGCAGGGCAUCUCCGAGAGAAAUGCC | met |
| UACGUAGGUGGUUUUCCCCUGAUAGUGCUAAGGGGGCCUGGAAGUUUGGACUGGGCAGAGCUCAACACAGCUCGGCAAAGUGGCUGUGGCUAGACUGCCUCUCUGGAUUCCUCGUCACUCAGCAGGGCAUCUCUGAGAGAAAUGCC | not met |
| UACGUAGGUGGUUUCCCCCUGAUAGUGCUAAGGGGGCCUGGAAGUUUGGACUGGGCAGAGCUCAACACAGCGUGGCAAAGUGGCUGUGGCUAGACUGCCUCUCUGGAUUCCUCGUCACUCAGCAGGGCAUCCCUGAGAGAAAUGCC | met |
| UACGUAGGUGGUUUUCCCCUGAUAGUGCUAAGGGGGCCUGGAAGUUCGGACUGGGCAGAGCUCAACGCAGCGUGGCAAAGUGGCUGUGGCUAGACUGCCUCUCUGGAUUCCUCGUCACUCAGCAGGGCAUCUCUGAGAGAAAUGCC | not met |
| UACGUAGGUGGUUUUCCCCUGAUAGUGCUAAGGGGGCCUGGAAGUUUGGACUGGGCAGAGCUCAACACAGCGUGGCAAAGUGGCUGUGUCUAGACUGCCUCUCUGGAUUCCUCGUCACUCAGCAAGGCAUCUCUGAGAGAAAUGCC | not met |
| UACGUAGGUGGUUUUCCCCUGAUAGUGCUAAGGGGGCCUGGAAGUUUGGACUGGGCAGAGCUCAACACAGCGUGGCAAAGUGGCUGUGGCUAGACUGCCUCCCUGGUUUCCUCGUCACUCAGCAGGGCAUCUCUGAGAGAAAUGCC | not met |
| UACGUAGGUGGUUUUCCCCUGAUAGUGCUAAGGGGGCCUAGAAGUUUGGACUGGGCAGAGCUCAACACAGCGUGGCAAAGUGGCUGUGGCUAGACUGCCUCUCUGGAUUCCUCGUCACUCAGCAGGGCAGCUCUGAGAGAAAUGCC | met |
| UACGUAGGUGGUUUUCCCCUGAUAGUGCUAAGGGGGCCUGGAAGUUUGGACUGGGCAGAGCUCAACACAGCGUGGCAAAGUGGCUGUGGCUAGACUGCCUUUCUGGAUUCCUCGUCACUCAGCAGGGCAUCUCUGAGAUAAAUGCC | met |
| UACGUAGGUGGUUUUCCCCUGAUAGUGCUAAGGGGGCCUGGAAGUUUGGACUGGGCAGAGCUCAGCACAGCGUGGCAAAGUGGCUGUGGCUAGACUGCCUCUCUGGAUUCCUCGUCACUCAGCAGGGCAUCUCUUAGAGAAAUGCC | not met |
| UACGUUGGUGGUUUUCCCCUGAUAGUGCUAAGGGGGCCCGGAAGUUUGGACUGGGCAGAGCUCAACACAGCGUGGCAAAGUGGCUGUGGCUAGACUGCCUCUCUGGAUUCCUCGUCACUCAGCAGGGCAUCUCUGAGAGAAAUGCC | not met |
| UACGUAGGUGGUUUUCCCCUGAUAGUGCUAAGGGGGCCUGGAAGUUUGGACUGGGCAGAGCUCAACACAGCGAGGCAAAGUGGCUGUGGCUAGACUGCCUCUCUGGAUUCCUCGUCACUUAGCAGGGCAUCUCUGAGAGAAAUGCC | met |
| UACGUAGGUGGUUUUCCCCUGAUAGUGCUAAGGGGGCCUGGUAGUUUGGACUGGGCAGAGCUCAACACAGCGUGGCAAAGUGGCUGUGGCUAGACUGCCUCUCAGGAUUCCUCGUCACUCAGCAGGGCAUCUCUGAGAGAAAUGCC | met |

Value source: the RNAGym collection of RNA variant scans (doi:10.7554/elife.90254)
